- subject of test: bovine serum albumin (BSA) (bovine) (UniProt P02769)
- Sequence (P02769 25-607 limits assumed): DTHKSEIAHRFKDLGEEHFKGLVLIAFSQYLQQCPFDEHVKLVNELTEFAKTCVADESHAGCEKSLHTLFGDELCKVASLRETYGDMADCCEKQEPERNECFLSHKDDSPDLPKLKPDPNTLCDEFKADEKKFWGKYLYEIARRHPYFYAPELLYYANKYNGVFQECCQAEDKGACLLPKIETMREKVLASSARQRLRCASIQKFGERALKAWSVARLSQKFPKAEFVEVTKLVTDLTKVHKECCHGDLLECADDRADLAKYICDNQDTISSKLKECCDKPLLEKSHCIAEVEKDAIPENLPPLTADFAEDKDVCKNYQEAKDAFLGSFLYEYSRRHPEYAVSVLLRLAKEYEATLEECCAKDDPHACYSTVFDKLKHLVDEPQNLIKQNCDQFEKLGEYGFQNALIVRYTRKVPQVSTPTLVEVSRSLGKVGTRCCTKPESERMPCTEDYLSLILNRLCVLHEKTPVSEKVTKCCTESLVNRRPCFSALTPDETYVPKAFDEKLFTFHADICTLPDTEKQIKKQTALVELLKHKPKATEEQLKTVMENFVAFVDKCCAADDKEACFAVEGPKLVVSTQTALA
- assay name: EIA, BSA background
metric: OD (A492)
Report field: quantity (unit follows the number).

binder	OD (A492)
HCV 208B-517 (antibody, V domains shown) VH: QVQLKQSGPGLVQPSQSLSITCTVSGFSLITHGVHWVRQSPGKGLEWLGVIWSGGSTDYNAAFISRLSISKDTSKSQVFLKMSSLQADDTAIYYCARNGGATAFDYWGQGTTLTVSS VL: DIVMTQSPATLSVTPGDRVSLSCRASQSISDYLHWYQQKSHESPRLLIKYASQSISGIPSRFRGSGSGSHFTLSINSVEPEDVGVYYCQNGHSFPWTFGGGTKLEIKR	0.07 OD

stdin: Can you look up the measured OD (A492) of HCV 208B-515 (antibody, V domains shown) VH: QVQLQQPGAELVKPGASLKLSCRASGYTFTSYWIHWVKQRPGQGLEWIGEIDPSDSYTNYNQKFKGKATLTVDKSSRAAYMQLSSLTSEDSAVYYCARHYYGVFDSWGQGTKLTVSS VL: QIVFTQYPAIMSASLGERVTMTCTASSSVTSSYLHWFQQKPGSSPKLWIYSTSNPGSGVPARFSGRGSGTSYSLSISSMEAEDAATYYCLQFHRSPWTFGGGTKLEIRR for me?
stdout: 0.07 OD

stdin: Can you look up the measured OD (A492) of HCV 208B-793 (antibody, V domains shown) VH: EVKLVESGGGLVQPGGSLKLSCAASGFTFSSYAMSWVRQTPERRLEWVTYISNGGGSTYYSDTVKGRFTFSRDNAKNTLYLQMSSLKSEDTAMYYCARHGLGRTGFASWGQGTLVTVSA VL: DIVMTQSHKFMSTSVGDRVSITCKASQDVGTAVAWYQQKPGQSPKLLIYWASTRHTGVPDRFTGSGSGTDFTLTISNVQSEDLADYFCQQYSNYLTFGAGTKLEVKR for me?
stdout: 0.42 OD
